test: Octanol-water partition coefficient of the compound; type: physicochemical
Quick rule for you: logP at 3 or higher means y, lower means n.

Answered examples (3):
[[record]]
sample_smiles = "N#Cc1c(-c2ccc(Cl)cc2)[n+]([O-])c2ccc(C(F)(F)F)cc2[n+]1[O-]"
answer_label = "y"

[[record]]
sample_smiles = "N#Cc1c(-c2ccccc2)[n+]([O-])c2ccc(Cl)cc2[n+]1[O-]"
answer_label = "n"

[[record]]
sample_smiles = "Cc1cc2c(cc1C)[n+]([O-])c(-c1ccco1)c(C#N)[n+]2[O-]"
answer_label = "n"


Evaluate Cc1ccc2c(c1)[n+]([O-])c(C#N)c(-c1ccc(Cl)cc1)[n+]2[O-] : logP at minimum 3?
n

Follow-up item: Cc1ccc(-c2c(C#N)[n+]([O-])c3cc(C)c(C)cc3[n+]2[O-])cc1
n

---

We begin with a simple list: items and their reported logP.
test: Octanol-water partition coefficient of the compound; assay type: physicochemical

[[record]]
sample_smiles = "N#Cc1c(-c2ccccc2)[n+]([O-])c2cc(F)c(F)cc2[n+]1[O-]"
assay_readout = "logP"
data_value = 2.62


Given COc1ccc2c(c1)[n+]([O-])c(C#N)c(-c1ccc(C)cc1)[n+]2[O-] , state its recorded logP.
1.82

What do you have for Cc1ccc(-c2c(C#N)[n+]([O-])c3cc(F)ccc3[n+]2[O-])cc1 ?
2.48

Another: N#Cc1c(-c2cccs2)[n+]([O-])c2ccccc2[n+]1[O-]
1.35

Would you mind doing N#Cc1c(-c2ccc(F)cc2)[n+]([O-])c2cc(F)c(F)cc2[n+]1[O-] as well?
2.74

Request: Cc1cc2c(cc1C)[n+]([O-])c(-c1ccc(Cl)cc1)c(C#N)[n+]2[O-]
2.83

# iterate: COc1ccc(-c2c(C#N)[n+]([O-])c3cc(F)ccc3[n+]2[O-])cc1
1.97

Cc1cc2c(cc1C)[n+]([O-])c(-c1ccc(F)cc1)c(C#N)[n+]2[O-] , same question.
2.72

Subsequent entry: COc1ccc(-c2c(C#N)[n+]([O-])c3cc(C(F)(F)F)ccc3[n+]2[O-])cc1
2.45

Note, next up: N#Cc1c(-c2ccco2)[n+]([O-])c2ccccc2[n+]1[O-]
0.582

---

system: Trypanosoma cruzi; test: Antitrypanosomal activity against Trypanosoma cruzi Tulahuen 2 epimastigotes assessed as inhibition of parasite growth at 25 uM relative to control; type: functional; settings: read-out: GI
# key: entry, value: inhibition of growth at 25 µM
Dear colleague, please return just the value in %, with no unit written.

Previously resolved entries follow.
[[record]]
compound = "N#Cc1c(-c2ccco2)[n+]([O-])c2cc(Cl)c(Cl)cc2[n+]1[O-]"
data_value = 67

[[record]]
compound = "N#Cc1c(-c2ccco2)[n+]([O-])c2ccc(Cl)cc2[n+]1[O-]"
data_value = 64.5

[[record]]
compound = "N#Cc1c(-c2cccs2)[n+]([O-])c2ccc(C(F)(F)F)cc2[n+]1[O-]"
data_value = 100

[[record]]
compound = "N#Cc1c(-c2ccco2)[n+]([O-])c2ccccc2[n+]1[O-]"
data_value = 46.3

[[record]]
compound = "N#Cc1c(-c2ccc(Cl)cc2)[n+]([O-])c2ccccc2[n+]1[O-]"
data_value = 97.1

[[record]]
compound = "COc1ccc2c(c1)[n+]([O-])c(C#N)c(-c1ccc(F)cc1)[n+]2[O-]"
data_value = 84.2

[[record]]
compound = "Cc1ccc(-c2c(C#N)[n+]([O-])c3cc(C)ccc3[n+]2[O-])cc1"
data_value = 41.6

[[record]]
compound = "Cc1cc2c(cc1C)[n+]([O-])c(-c1ccc(F)cc1)c(C#N)[n+]2[O-]"
data_value = 92.5

[[record]]
compound = "N#Cc1c(-c2ccc(F)cc2)[n+]([O-])c2cc(F)c(F)cc2[n+]1[O-]"
data_value = 29.4

[[record]]
compound = "N#Cc1c(NC(=O)c2ccco2)[n+]([O-])c2cc(F)c(F)cc2[n+]1[O-]"
data_value = 53.1


Using the record for COc1ccc(-c2c(C#N)[n+]([O-])c3cc(C)c(C)cc3[n+]2[O-])cc1 , report its inhibition of growth at 25 µM.
100

Also N#Cc1c(-c2ccc(F)cc2)[n+]([O-])c2ccc(C(F)(F)F)cc2[n+]1[O-] ?
100

Quick one: N#Cc1c(-c2cccs2)[n+]([O-])c2ccccc2[n+]1[O-]
100

One more compound: Cc1cc2c(cc1C)[n+]([O-])c(-c1ccccc1)c(C#N)[n+]2[O-]
97.4

Repeat with N#Cc1c(-c2ccccc2)[n+]([O-])c2ccc(Cl)cc2[n+]1[O-]
97.8

Moving on to the next compound: N#Cc1c(-c2ccc(F)cc2)[n+]([O-])c2cc(Cl)c(Cl)cc2[n+]1[O-]
85.3
